Target: human recombinant HDAC1 (Homo sapiens, UniProt Q13547)
Construct: purchased Enzo Life Science, Inc. BML-SE456
Sequence (Q13547 whole entry): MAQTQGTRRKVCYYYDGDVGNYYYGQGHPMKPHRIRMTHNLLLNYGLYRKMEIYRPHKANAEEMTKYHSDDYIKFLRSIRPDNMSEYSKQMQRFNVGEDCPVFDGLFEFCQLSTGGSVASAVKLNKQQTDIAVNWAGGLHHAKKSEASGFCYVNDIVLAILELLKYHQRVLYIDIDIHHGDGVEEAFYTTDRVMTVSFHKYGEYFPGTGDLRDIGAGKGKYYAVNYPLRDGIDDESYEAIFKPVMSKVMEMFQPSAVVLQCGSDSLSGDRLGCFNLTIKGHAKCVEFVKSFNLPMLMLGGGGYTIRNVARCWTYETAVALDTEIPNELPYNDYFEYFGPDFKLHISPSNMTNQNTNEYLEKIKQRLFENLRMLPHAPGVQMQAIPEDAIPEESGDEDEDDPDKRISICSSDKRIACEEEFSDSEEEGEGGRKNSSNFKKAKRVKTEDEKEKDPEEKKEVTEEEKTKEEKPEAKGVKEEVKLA
Test: HDAC1 enzyme activity inhibition (HDAC Fluorimetric Drug Discovery Kit)
Assay type: biochemical
Details: human recombinant HDAC1; IC50 calculated with GraphPad Prism; read-out: HDAC1
readoutKind: IC50

Consider the worked cases shown below.
Looking up `CCN1CC(N2CCc3cc(-c4cn(Cc5ccc(-c6nnc(C(F)F)o6)cc5F)nn4)ccc3C2)C1` , I found its IC50 recorded as > 50 µM

Looking up `Fc1cc(-c2nnc(C(F)F)o2)ccc1Cn1cc(-c2cccc(CN3CCC(F)(F)CC3)c2)nn1` , I found its IC50 recorded as > 50 µM

Looking up `Fc1cc(-c2nnc(C(F)F)o2)ccc1Cn1cc(-c2cccc(CN3CCOCC3)c2)nn1` , I found its IC50 recorded as > 50 µM

Continuing:
Looking up `CC(C)(C)C(=O)Nc1cccc(-c2cn(Cc3ccc(-c4nnc(C(F)F)o4)cn3)nn2)c1` , I found its IC50 recorded as > 50 µM

Looking up `O=C(O)c1cccc(-c2cn(Cc3ccc(-c4nnc(C(F)F)o4)cc3)nn2)c1` , I found its IC50 recorded as > 50 µM

Looking up `FC(F)c1nnc(-c2ccc(Cn3cc(-c4ccc5c(c4)CN(C4COC4)CC5)nn3)nc2)o1` , I found its IC50 recorded as > 50 µM

Looking up `CCN1CCN(c2cccc(-c3cn(Cc4ccc(-c5nnc(C(F)F)o5)cc4F)nn3)c2)CC1` , I found its IC50 recorded as > 50 µM

Looking up CCN1CCCC(c2cn(Cc3ccc(-c4nnc(C(F)F)o4)cn3)nn2)C1 (stereo not drawn) , I found its IC50 recorded as > 50 µM

These entries and their values trace back to patent US20230257372A1.
